Taken from patent US20140179896A1.

// reported Kd per item
TEST_TARGET: T1, human vascular endothelial growth factor receptor-2 Fc chimera (KDR-Fc) (human, UniProt P35968 20-764)
T1 construct: range 1-764; purchased from R&D Systems; also called hKDR; human VEGF-R2-Fc; not shown: human IgG1 Fc
T1 sequence (P35968 20-764 limits assumed, change not shown, form in doubt): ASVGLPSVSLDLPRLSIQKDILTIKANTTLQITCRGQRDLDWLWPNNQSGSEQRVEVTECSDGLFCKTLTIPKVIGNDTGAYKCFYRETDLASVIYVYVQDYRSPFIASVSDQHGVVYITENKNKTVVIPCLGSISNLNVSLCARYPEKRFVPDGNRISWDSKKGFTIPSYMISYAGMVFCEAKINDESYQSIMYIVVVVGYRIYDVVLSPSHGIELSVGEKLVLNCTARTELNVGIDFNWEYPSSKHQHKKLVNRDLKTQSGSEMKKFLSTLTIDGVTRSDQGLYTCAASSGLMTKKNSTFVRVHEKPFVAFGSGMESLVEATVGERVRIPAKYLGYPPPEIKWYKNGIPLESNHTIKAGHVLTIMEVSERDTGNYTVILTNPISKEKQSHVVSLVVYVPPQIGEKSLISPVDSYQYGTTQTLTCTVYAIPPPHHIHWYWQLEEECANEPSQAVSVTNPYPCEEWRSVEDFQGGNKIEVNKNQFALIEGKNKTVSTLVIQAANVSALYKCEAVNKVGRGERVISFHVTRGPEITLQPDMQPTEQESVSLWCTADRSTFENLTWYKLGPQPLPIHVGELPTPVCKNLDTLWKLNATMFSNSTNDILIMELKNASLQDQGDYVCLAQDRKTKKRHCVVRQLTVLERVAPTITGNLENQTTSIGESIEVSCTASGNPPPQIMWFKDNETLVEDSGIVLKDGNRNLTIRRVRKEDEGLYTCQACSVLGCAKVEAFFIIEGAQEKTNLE
PROTOCOL_TEXT: radioactive equilibrium binding assay, KDR-Fc
OBSERVABLE: Kd

[
  {
    "BINDER": "K14 (designed binder, tag left out) EVVAATPTSLLISWRHPHFPTRYYRITYGETGGNSPVQEFTVPLQPPTATISGLKPGVDYTITGYAVTREENDHELLIPISINYRT",
    "OBSERVABLE": "Kd",
    "REPORTED_RESULT": "< 600 pM"
  },
  {
    "BINDER": "K15 (designed binder, tag left out) EVVAATPTSLLISWRHPHFPTRYYRITYGETGGNSPVQEFTVPLQPPTATISGLKPGVDYTITGYAVTEVHHDREIKTPISINYRT",
    "OBSERVABLE": "Kd",
    "REPORTED_RESULT": "< 400 pM"
  },
  {
    "BINDER": "K1 (designed binder, tag left out) EVVAATPTSLLISWRHPHFPTRYYRITYGETGGNSPVQEFTVPLQPPTATISGLKPGVDYTITGYAVTMGLYGHELLTPISINYRT",
    "OBSERVABLE": "Kd",
    "REPORTED_RESULT": "< 600 pM"
  }
]
